- Tested on: Escherichia coli TOP10;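 note: peptides expressed intracellularly from a pBAD plasmid library in pooled LB shake-flask culture, induced with 0.3% L-arabinose, DNA abundance read by NGS, three biological replicates, DESeq2 with apeglm shrinkage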
- test_method_notes: shrunken log2 fold change of peptide-encoding DNA abundance (4.5 h post-induction vs induction); higher = less antimicrobial activity (less host growth inhibition)
- condition_notes: time post-induction: 4.5 h; library: site-saturation at positions 5, 18, 19, 20
Cut-off 0.04 on shrunken log2 fold change, inclusive. At or above means met; below means not met.

{"columns": ["sequence_string", "class_assignment"],
 "data": [
  ["RRIRNRPPRLPRPRPRPPDCPRP", "not met"],
  ["RRIRRRPPRLPRPRPRPKWVPRP", "met"],
  ["RRIRYRPPRLPRPRPRPIWFPRP", "not met"],
  ["RRIRFRPPRLPRPRPRPMVIPRP", "not met"],
  ["RRIRYRPPRLPRPRPRPFVAPRP", "not met"]
]}

Request: Hello, I need to know if RRIRIRPPRLPRPRPRPGVFPRP has measured shrunken log2 fold change not below 0.04. Thanks!
Result: met

Request: Hello, I need to know if RRIRYRPPRLPRPRPRPLLRPRP has measured shrunken log2 fold change not below 0.04. Thanks!
Result: not met
